# reported pIC50; entries follow
Biological target: α-glycosidase
Experiment: α-glycosidase inhibitory activity (PNPG method)
Conditions: yeast enzyme EC 3.2.1.20
Procedure: Optical rotations were measured on a MCP 5100 modular compact polarimeter (Anton Paar, America). IR spectra were taken on a Nicolet 380 FT-IR instrument (Thermo, USA) as KBr discs. NMR spectra were recorded on a Bruker Avance III 500 MHz NMR spectrometer (Bruker, German). ESIMS and HRESIMS were recorded with amaZon SL (Bruker) or Compact QqTOF (Bruker). ECD spectra were measured by APL Chiascan (Applied Photophysics Ltd., England). […]
Scale explanation: pIC50 corresponds to minus log10 of a concentration expressed in moles per litre.

Record excerpt, results attached:
C[C@H]1O[C@H](O[C@H]2[C@H](O)[C@@H](O)[C@@H](O[C@H]3[C@H](O)[C@@H](O)C(O)O[C@@H]3CO)O[C@@H]2CO)[C@H](O)[C@@H](O)[C@@H]1N[C@H]1C=C(CO)[C@@H](O)[C@H](O)[C@H]1O (some centres unmarked) [Acarbose, reference compound] :: 3.14
Oc1ccc(CCOCCc2ccc(O)cc2)cc1 [Compound 8, di-[2-(4-hydroxyphenyl)] ethyl ether] :: 3.52

Which pIC50 value is on record for COc1cccc(CCc2cc(OC)c(O)c3c2C(Cc2cccc(OC)c2)c2cc(O)c(O)c(OC)c2O3)c1 (centres unmarked) ? 4.52
